Taken from patent US20240301052A1.

Exercise: for every item that follows, state its recorded Cytotoxic Effect - OVCAR3.
assayTarget: T1, human SLC34A2 (human, UniProt O95436 1-690)
T1 sequence (looked up): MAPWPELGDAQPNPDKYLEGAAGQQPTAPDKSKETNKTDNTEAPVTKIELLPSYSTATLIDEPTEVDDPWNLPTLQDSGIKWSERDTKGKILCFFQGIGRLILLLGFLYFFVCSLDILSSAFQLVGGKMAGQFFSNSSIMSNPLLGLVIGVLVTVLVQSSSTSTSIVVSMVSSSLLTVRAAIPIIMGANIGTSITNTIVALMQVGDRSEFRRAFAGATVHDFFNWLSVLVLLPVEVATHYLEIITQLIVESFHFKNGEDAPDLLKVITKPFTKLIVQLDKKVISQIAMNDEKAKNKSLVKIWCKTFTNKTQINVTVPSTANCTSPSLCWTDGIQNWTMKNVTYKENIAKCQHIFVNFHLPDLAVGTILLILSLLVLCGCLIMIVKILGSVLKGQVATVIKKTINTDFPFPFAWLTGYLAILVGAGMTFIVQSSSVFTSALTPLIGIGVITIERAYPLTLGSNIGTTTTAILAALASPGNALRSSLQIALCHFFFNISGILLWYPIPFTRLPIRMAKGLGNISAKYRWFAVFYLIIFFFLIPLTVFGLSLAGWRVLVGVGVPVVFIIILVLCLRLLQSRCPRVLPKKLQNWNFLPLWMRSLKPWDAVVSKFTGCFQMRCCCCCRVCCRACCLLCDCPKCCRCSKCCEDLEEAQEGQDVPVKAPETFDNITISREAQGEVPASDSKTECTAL
methodDescription: cell-based or functional assay
Your reply should be a number followed by the unit it is expressed in.

# binder, outcomeMeasure, experimentalValue
data = [
    ("63A11D5B4.p1.z9 hIgG1 (antibody, V domains shown, humanized hIgG1) VH: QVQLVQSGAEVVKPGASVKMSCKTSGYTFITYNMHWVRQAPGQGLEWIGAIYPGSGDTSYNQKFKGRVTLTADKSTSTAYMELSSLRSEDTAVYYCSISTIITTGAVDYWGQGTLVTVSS VL: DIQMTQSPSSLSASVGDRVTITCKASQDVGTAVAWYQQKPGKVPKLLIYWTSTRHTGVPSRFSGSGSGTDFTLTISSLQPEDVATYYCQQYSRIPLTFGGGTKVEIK", "Cytotoxic Effect - OVCAR3", "0.06 nM"),
    ("62G10E4G8.p3.z15 hIgG1 (antibody, V domains shown, humanized hIgG1) VH: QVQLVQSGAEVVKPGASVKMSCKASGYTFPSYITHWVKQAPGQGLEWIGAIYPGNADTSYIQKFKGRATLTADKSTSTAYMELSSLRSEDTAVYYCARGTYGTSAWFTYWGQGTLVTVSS VL: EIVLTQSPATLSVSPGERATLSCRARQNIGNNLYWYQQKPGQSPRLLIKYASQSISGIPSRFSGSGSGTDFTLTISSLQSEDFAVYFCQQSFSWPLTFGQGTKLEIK", "Cytotoxic Effect - OVCAR3", "0.025 nM"),
    ("30H9B8F9.p1.z5 hIgG1 (antibody, V domains shown, humanized hIgG1) VH: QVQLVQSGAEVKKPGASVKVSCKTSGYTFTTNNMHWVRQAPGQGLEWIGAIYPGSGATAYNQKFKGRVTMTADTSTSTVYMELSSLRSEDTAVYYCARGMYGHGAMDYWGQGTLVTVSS VL: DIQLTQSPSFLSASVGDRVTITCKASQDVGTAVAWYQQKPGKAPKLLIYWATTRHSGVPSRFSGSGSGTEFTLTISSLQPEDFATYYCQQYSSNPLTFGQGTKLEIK", "Cytotoxic Effect - OVCAR3", "0.02 nM"),
]

Kindly consider the entry below.
Prompt: So what's the measured Cytotoxic Effect - OVCAR3 for this one? 91C9F1.p1.z7 hIgG1 (antibody, V domains shown, humanized hIgG1) VH: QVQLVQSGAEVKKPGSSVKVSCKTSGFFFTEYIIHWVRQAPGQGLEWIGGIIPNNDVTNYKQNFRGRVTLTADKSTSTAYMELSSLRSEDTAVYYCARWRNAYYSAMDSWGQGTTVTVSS VL: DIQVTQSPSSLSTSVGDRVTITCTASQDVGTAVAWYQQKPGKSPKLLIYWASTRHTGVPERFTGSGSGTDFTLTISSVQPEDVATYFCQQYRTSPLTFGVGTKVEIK
Response: 0.014 nM
